Molecular target: recombinant full-length USP7 (Homo sapiens, UniProt Q93009)
Construct: A 25 μl reaction volume containing recombinant full-length USP7 (62 pM)
Sequence (Q93009 whole entry): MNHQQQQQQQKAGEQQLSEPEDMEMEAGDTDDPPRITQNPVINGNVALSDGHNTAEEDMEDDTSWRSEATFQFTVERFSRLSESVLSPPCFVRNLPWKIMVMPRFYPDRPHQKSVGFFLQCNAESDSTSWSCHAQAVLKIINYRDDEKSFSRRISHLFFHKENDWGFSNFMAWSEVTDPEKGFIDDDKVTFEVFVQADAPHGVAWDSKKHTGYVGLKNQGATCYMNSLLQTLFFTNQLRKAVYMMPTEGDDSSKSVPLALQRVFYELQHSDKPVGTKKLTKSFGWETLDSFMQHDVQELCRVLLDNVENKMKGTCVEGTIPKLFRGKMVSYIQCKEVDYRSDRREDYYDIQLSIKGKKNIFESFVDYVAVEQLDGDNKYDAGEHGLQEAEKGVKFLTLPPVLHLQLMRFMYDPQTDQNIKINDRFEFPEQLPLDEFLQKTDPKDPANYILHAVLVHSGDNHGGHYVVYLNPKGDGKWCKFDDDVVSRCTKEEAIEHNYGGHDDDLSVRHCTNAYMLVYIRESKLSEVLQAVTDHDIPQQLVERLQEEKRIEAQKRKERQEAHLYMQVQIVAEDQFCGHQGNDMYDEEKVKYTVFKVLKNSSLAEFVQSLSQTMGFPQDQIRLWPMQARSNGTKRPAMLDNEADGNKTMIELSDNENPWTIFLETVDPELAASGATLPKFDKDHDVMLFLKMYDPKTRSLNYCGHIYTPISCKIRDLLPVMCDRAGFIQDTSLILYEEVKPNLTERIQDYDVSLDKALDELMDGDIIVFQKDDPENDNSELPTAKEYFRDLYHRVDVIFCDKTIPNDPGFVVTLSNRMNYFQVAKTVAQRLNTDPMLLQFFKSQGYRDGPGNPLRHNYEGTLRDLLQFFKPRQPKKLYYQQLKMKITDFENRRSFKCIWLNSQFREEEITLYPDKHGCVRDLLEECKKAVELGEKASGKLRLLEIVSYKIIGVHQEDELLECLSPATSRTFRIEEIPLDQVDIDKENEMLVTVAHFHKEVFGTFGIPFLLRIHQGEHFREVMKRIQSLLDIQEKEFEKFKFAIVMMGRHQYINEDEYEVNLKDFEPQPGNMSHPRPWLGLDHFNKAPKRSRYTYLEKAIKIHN
Experiment: USP7-mediated ubiquitin-rhodamine cleavage assay
Format: biochemical
Settings: recombinant full-length USP7 62 pM; ubiquitin-rhodamine 100 nM; 30-minute incubation with compound, 1 hour reaction at room temperature; read-out: Potency: USP7 IC50
pIC50: −log10 of the molar value. Counter-ions that a name gives are not always drawn.
// pIC50 lookup, one value per entry

Past entries and their recorded results:
compound: Cc1cc(Cl)cc(-c2ccnc3cc(CO)sc23)c1O[C@@H]1CNC[C@H]1O [Example 80]
pIC50: 5.00 to 6.00
//
compound: Cc1cc(Cl)cc(-c2ncnc3cc(CN4C(=O)C5CC5C4=O)sc23)c1OC1CCNCC1 (centres unmarked) [Example 231]
pIC50: 5.00 to 6.00

Reported pIC50 for Cc1cc(Cl)cc(-c2ccnc3cc(CN4C(=O)CCC4=O)sc23)c1O[C@@H]1CNC(C(=O)N(C)C)C1 (some centres unmarked) [Example 64] was 5.00 to 6.00

Sure, the documented pIC50 for Cc1cc(Cl)cc(-c2ncnc3cc(Cn4c(=O)ccn(C)c4=O)sc23)c1O[C@H]1CCCNC1 [Example 251] is > 6.00

The reported value for Cc1cc(Cl)cc(-c2ccnc3cc(CO)sc23)c1OCC1CCNC1 (centres unmarked) [Example 70] in terms of pIC50 is 4.52 to 5.00

Sure, the documented pIC50 for N#Cc1cc(-c2ccnc3cc(CN4C(=O)CCC4=O)sc23)c(O[C@@H]2CNC[C@@H]2F)cc1F [Example 135] is 5.00 to 6.00

pIC50 reported for this compound Cc1cc(Cl)cc(-c2ccnc3cc(CO)sc23)c1O[C@@H]1CN[C@H](CO)C1 [Example 77] : 4.52 to 5.00

Record summary for Cc1cc(Cl)cc(-c2ncnc3cc(CN4C(=O)C5C(C4=O)C5(C)C)sc23)c1O[C@@H]1CN(C)C[C@@H]1F (some centres unmarked) [Example 348, dihydrochloride] : reported pIC50 = > 6.00
